The measurements presented in this section are drawn from patent US20110039758A1.

tested system: GST-NOS1 (nNOS) PDZ domain (human)
Sequence (chain, as listed by the source): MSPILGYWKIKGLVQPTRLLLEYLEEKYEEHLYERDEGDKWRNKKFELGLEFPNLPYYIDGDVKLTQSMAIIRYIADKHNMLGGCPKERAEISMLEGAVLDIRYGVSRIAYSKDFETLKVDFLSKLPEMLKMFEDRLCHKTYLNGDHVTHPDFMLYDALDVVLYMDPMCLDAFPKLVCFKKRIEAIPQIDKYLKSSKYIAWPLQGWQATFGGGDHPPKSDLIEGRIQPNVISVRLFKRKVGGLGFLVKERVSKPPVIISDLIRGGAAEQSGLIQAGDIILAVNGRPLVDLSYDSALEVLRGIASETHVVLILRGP
assay comment: G assay
measured metric: Average OD (OD)
Please reply with the bare figure in OD and do not write the unit itself.

Answered cases to consult:
ALVLIAFCIIRRRPSAYQAL (modifications not checked) [CD68 PL peptide] : 0.67
TTNNNPNSAVNIKKIFTDV (modifications not checked) [KV1.3 PL peptide] : 0.67
SYPTPRPYPKPAPSSGKDYV (modifications not checked) [claudin 1 PL peptide] : 0.9
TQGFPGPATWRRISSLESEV (modifications not checked) [NMDA Glutamate Receptor 2C (cysteine-free) C-terminal 20mer peptide] : 0.49
SSSQSLESDGSYQKPSYIL (modifications not checked) [CD62E PL peptide] : 0.5

(Q) GET /values?readout=Average OD&item= PIPAGGCTFSGIFPTLTSPL (modifications not checked) [KIAA 1481 PL peptide]
(A) 0.71

(Q) GET /values?readout=Average OD&item= LGYSIPSRSGASGLDKRDYV (modifications not checked) [claudin 9 PL peptide]
(A) 0.51

(Q) GET /values?readout=Average OD&item= SFTSILTCHQRRTQRKETVA (modifications not checked) [GluR5-2 (rat) PL peptide]
(A) 0.65

(Q) GET /values?readout=Average OD&item= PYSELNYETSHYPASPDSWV (modifications not checked) [catenin-delta 2 PL peptide]
(A) 2.1

(Q) GET /values?readout=Average OD&item= SSPDSSYQGKGFVMSRAMYV (modifications not checked) [Nectin 2 PL peptide]
(A) 0.54
